Collected GI50 values appear next to each entry.
Tested on: PANC-1
Test Details: SRB colorimetric assay of cell growth and viability, PANC-1
Format: cell-based, human
Condition Label: 48 hours exposure
The answer is to be given in nM; state only the numeric part.

// returns GI50 for C/C=C1\NC(=O)[C@H](Cc2ccccc2)NC(=O)[C@@H](C(C)C)NC(=O)[C@@H]([C@@H](C)CC)NC(=O)[C@H](NC(=O)[C@H](NC(=O)[C@H](CCCN)NC(=O)[C@H]2CCCN2C(=O)[C@H](NC(=O)[C@@H](NC(=O)[C@@H](NC(=O)[C@@H](CCC(=O)O)NC(=O)CCCC(C)C)[C@@H](C)O)C(C)C)C(C)C)[C@@H](C)CC)[C@@H](C)OC(=O)[C@H](C(C)C)NC1=O [Compound 39, [D-Glu^13]-KF] with PANC-1; value = 4100

Others:
// returns GI50 for C/C=C1\NC(=O)[C@H](Cc2ccccc2)NC(=O)[C@@H](C(C)C)NC(=O)[C@@H]([C@@H](C)CC)NC(=O)[C@H](NC(=O)[C@H](NC(=O)[C@H](CCCN)NC(=O)[C@H]2CCCN2C(=O)[C@H](NC(=O)[C@@H](NC(=O)[C@@H](NC(=O)[C@H](NC(=O)CCCCCCCCCC)C(C)C)[C@@H](C)O)C(C)C)C(C)C)[C@@H](C)CC)[C@@H](C)OC(=O)[C@H](C(C)C)NC1=O [Compound 15, [Und^14]-KF] with PANC-1; value = 1230
